Value source: patent US9732032B2

- measured_target: human recombinant full-length fatty acid synthase (FASN) (Homo sapiens)
- Construct: human recombinant full-length fatty acid synthase
- Sequence (P49327 whole entry): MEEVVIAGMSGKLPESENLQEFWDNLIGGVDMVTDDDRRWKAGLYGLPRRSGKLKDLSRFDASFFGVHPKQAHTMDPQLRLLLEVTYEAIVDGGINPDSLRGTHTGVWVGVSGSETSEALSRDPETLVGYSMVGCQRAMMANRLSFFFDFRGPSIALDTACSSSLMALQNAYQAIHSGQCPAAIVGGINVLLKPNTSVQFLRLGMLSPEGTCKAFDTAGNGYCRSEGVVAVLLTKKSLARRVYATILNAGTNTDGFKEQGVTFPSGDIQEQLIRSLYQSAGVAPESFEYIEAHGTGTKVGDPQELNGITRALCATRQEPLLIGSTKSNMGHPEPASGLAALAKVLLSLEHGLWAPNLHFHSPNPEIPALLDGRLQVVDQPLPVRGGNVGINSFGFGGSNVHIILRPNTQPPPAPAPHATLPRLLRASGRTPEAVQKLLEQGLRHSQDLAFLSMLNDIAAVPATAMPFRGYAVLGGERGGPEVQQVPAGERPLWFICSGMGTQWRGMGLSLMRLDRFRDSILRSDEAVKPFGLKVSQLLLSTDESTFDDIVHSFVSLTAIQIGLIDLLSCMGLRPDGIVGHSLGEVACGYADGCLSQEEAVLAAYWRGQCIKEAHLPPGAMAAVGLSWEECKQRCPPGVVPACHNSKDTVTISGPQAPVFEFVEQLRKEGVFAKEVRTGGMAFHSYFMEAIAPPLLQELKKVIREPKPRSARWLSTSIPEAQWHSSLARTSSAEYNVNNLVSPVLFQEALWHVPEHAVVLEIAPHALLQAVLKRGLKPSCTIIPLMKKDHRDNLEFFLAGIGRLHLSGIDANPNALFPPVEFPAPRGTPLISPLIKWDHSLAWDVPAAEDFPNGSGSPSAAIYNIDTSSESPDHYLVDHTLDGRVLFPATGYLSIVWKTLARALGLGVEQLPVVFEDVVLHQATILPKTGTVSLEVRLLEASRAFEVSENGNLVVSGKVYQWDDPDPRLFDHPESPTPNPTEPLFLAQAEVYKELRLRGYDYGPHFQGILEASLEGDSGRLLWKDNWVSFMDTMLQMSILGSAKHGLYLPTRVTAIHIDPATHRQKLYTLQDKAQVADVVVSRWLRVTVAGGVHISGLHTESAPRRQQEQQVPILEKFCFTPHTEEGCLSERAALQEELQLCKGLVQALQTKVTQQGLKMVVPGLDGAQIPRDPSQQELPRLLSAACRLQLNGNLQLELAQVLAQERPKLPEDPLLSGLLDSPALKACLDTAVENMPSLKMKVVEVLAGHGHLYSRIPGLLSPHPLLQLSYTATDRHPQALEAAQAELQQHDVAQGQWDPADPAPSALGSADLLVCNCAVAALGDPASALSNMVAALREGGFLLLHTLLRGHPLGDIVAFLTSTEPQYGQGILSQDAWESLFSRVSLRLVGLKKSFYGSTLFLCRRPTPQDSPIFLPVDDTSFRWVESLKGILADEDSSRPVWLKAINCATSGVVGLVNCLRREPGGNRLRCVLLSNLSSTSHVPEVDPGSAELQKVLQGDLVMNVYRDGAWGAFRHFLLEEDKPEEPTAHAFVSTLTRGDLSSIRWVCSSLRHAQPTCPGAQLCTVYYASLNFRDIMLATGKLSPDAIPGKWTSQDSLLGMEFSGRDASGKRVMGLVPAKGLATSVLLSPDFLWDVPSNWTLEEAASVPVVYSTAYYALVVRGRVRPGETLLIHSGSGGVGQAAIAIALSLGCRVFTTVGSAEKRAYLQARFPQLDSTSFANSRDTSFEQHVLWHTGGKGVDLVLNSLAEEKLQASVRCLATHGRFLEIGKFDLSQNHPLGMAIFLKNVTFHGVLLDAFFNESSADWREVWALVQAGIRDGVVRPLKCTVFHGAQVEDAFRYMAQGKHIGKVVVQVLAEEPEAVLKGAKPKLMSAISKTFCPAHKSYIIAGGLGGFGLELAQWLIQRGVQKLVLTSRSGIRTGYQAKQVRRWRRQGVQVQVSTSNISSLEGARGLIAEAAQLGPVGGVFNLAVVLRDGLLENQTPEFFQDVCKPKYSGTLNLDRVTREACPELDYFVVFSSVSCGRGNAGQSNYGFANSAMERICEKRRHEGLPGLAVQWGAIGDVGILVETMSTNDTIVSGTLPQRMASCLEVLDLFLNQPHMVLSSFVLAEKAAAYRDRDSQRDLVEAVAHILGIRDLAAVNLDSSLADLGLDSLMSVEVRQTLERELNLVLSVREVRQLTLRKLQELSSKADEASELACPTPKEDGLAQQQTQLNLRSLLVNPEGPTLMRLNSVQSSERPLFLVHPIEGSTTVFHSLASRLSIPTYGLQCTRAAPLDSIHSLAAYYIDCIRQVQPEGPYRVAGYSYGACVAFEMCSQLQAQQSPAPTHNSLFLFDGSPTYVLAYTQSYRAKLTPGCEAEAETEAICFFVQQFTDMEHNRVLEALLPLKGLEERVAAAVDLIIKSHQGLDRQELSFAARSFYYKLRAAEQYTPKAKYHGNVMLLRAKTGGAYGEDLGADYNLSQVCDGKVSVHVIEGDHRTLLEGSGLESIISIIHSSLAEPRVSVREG
- experiment_summary: Biochemical activity testing of human fatty acid synthase FASN (NADPH fluorescence intensity assay)
- settings: NADPH fluorescence decrease (ex 340 nm / em 460 nm), 30 minutes at room temperature, read-out: IC50 FASN (enzyme assay)
pIC50: −log10 of the molar value.
endpoint_label: pIC50

molecule="CN(C)C(=O)[C@H]1CC[C@@H](N(C)C(=O)c2ccc(-c3nc4ccccc4o3)cc2)C1 [Compound A82]" endpoint_label=pIC50 result="5.52 to 6.52"
molecule="CCNC(=O)[C@H]1CC[C@@H](N(C)C(=O)c2ccc(-c3ccccc3)cc2)C1 [Compound A50]" endpoint_label=pIC50 result="> 6.52"
molecule="CN(C(=O)c1ccc(-c2nc3ccccc3o2)cc1)[C@@H]1CC[C@H](C(=O)N[C@H]2C[C@H](O)C2)C1 [Compound A77]" endpoint_label=pIC50 result="> 6.52"
molecule="CN(C(=O)c1ccc(-c2nc3ccccc3o2)cc1)[C@@H]1CC[C@H](C(N)=O)C1 [Compound A86]" endpoint_label=pIC50 result="5.52 to 6.52"
molecule="CCNC(=O)[C@H]1CC[C@@H](N(C)C(=O)c2ccc(-c3ccc(O[C@@H]4CCOC4)cc3)cc2)C1 [Compound A4]" endpoint_label=pIC50 result="5.52 to 6.52"
molecule="CCNC(=O)[C@H]1CC[C@@H](N(C)C(=O)c2ccc(-c3ccccc3S(C)(=O)=O)cc2)C1 [Compound A59]" endpoint_label=pIC50 result="> 6.52"
molecule="CCN(CC)C(=O)[C@H]1CC[C@@H](N(C)C(=O)c2ccc(-c3nc4ccccc4o3)cc2)C1 [Compound A48]" endpoint_label=pIC50 result="5.52 to 6.52"
molecule="CN(C(=O)c1ccc(-c2nc3ccccc3o2)cc1)[C@@H]1CC[C@H](C(=O)N[C@H]2C[C@@H](O)C2)C1 [Compound A78]" endpoint_label=pIC50 result="> 6.52"
molecule="COC[C@H](C)NC(=O)[C@H]1CC[C@@H](N(C)C(=O)c2ccc(-c3nc4ccccc4o3)cc2)C1 [Compound A92]" endpoint_label=pIC50 result="5.52 to 6.52"
molecule="CCNC(=O)[C@H]1CC[C@@H](N(C)C(=O)c2ccc(-c3ccccc3)cc2Cl)C1 [Compound A51]" endpoint_label=pIC50 result="> 6.52"
molecule="CN(C(=O)c1ccc(-c2nc3ccccc3o2)cc1)[C@@H]1CC[C@H](C(=O)NC2CC2)C1 [Compound A6]" endpoint_label=pIC50 result="> 6.52"
molecule="CCNC(=O)[C@H]1CC[C@@H](N(C)C(=O)c2ccc(-c3nc4cc(S(N)(=O)=O)ccc4o3)cc2)C1 [Compound A93]" endpoint_label=pIC50 result="4.30 to 5.52"
molecule="CC[C@H](C)NC(=O)[C@H]1CC[C@@H](N(C)C(=O)c2ccc(-c3nc4ccccc4o3)cc2)C1 [Compound A74]" endpoint_label=pIC50 result="> 6.52"
molecule="CCNC(=O)[C@H]1CC[C@@H](N(C)C(=O)c2ccc(C#Cc3ccncc3)cc2)C1 [Compound A70]" endpoint_label=pIC50 result="> 6.52"
molecule="CC(C)NC(=O)[C@H]1CC[C@@H](N(C)C(=O)c2ccc(-c3nc4ccccc4o3)cc2)C1 [Compound A5]" endpoint_label=pIC50 result="> 6.52"
